For each of the variants below, state its protein stability index.
B1: KLHL20 (parent)
chain: YQDMIYAVGGRDDTTELSSAERYN

Variants of: B1
assay: protein stability index of a GFP-peptide fusion (GPS, HEK-293T) (PSI 1-6); higher = more stable;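 note: lentivirally expressed fusions sorted by FACS into six bins by GFP to DsRed ratio, PSI derived from sequencing read proportions per bin multiplied by bin number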
measurement-parameters: c terminus: a fixed tail appended
API doc: respond with a numeric literal and nothing else, no unit.

Given the entry YQDMIYAVGGRDDTTPLSSAERYN [E16P] , report its measured protein stability index.
2.05

Given the entry YQDMIYAVGGRDDTTELSSAERWN [Y23W] , report its measured protein stability index.
3

Given the entry YQDMIYAVGGRDDTTELSMAERYN [S19M] , report its measured protein stability index.
2.01

Given the entry YQDMIYAVGGRDDTTELSSAERYG [N24G] , report its measured protein stability index.
2.99
